# subject_of_test: hA1 (Homo sapiens)
# Sequence (P30542 1-326): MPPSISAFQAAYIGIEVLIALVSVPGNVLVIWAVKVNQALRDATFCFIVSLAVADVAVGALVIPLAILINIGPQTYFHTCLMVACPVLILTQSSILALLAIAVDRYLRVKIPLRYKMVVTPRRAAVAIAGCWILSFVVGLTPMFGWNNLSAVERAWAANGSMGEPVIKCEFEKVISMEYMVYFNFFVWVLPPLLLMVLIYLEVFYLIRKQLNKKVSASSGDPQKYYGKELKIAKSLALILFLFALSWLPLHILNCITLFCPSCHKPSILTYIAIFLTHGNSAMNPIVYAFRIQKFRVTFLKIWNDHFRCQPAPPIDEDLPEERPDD
Could you please report measured Ki for the items listed next?
Express the result in nM but write the number alone.

Prompt: Consider the compound CCN(CC)C(=O)C1CCCN(C(=O)c2cc(N)c3nc(-c4ccc(Br)o4)nn3c2)C1 (stereo not drawn) and give its measured Ki.
Response: 2690

Prompt: Consider the compound `Nc1cc(C(=O)N2CCCC2)cn2nc(-c3ccc(Br)o3)nc12` and give its measured Ki.
Response: 1270

Prompt: Consider the compound `Nc1cc(C(=O)N2CCCC2)cn2nc(-c3cccs3)nc12` and give its measured Ki.
Response: 725

Prompt: Consider the compound Cc1ccc(-c2nc3c(N)cc(C(=O)N4CCCC(C)C4)cn3n2)o1 (stereo not drawn) and give its measured Ki.
Response: 1350

Prompt: Consider the compound CC1CCCN1C(=O)c1cc(N)c2nc(-c3ccc(Br)o3)nn2c1 (stereo not drawn) and give its measured Ki.
Response: 1120

Prompt: Consider the compound `Nc1cc(C(=O)N(Cc2ccccc2)Cc2ccccc2)cn2nc(-c3cccs3)nc12` and give its measured Ki.
Response: 311

Prompt: Consider the compound `Nc1cc(C(=O)N2CCSCC2)cn2nc(-c3ccc(Br)o3)nc12` and give its measured Ki.
Response: 937

Prompt: Consider the compound `COC[C@H]1CCCN1C(=O)c1cc(N)c2nc(-c3ccco3)nn2c1` and give its measured Ki.
Response: 5630

Prompt: Consider the compound CC1CCCN1C(=O)c1cc(N)c2nc(-c3ccco3)nn2c1 (stereo not drawn) and give its measured Ki.
Response: 2940

Prompt: Consider the compound `CN(C)C(=O)[C@@H]1CCCN1C(=O)c1cc(N)c2nc(-c3ccc(Br)o3)nn2c1` and give its measured Ki.
Response: 1110

Prompt: Consider the compound `CCN(CCc1ccccn1)C(=O)c1cc(N)c2nc(-c3ccc(Br)o3)nn2c1` and give its measured Ki.
Response: 1420

Prompt: Consider the compound `CCN(CC)C(=O)c1cc(N)c2nc(-c3ccc(Br)o3)nn2c1` and give its measured Ki.
Response: 2260

Prompt: Consider the compound `Nc1cc(C(=O)N(Cc2ccccc2)Cc2ccccc2)cn2nc(-c3ccco3)nc12` and give its measured Ki.
Response: 247

Prompt: Consider the compound CC1CCCN(C(=O)c2cc(N)c3nc(-c4ccco4)nn3c2)C1 (stereo not drawn) and give its measured Ki.
Response: 2690

Prompt: Consider the compound `Nc1cc(C(=O)N2CCCC2)cn2nc(-c3ccco3)nc12` and give its measured Ki.
Response: 4200

Prompt: Consider the compound `Nc1cc(C(=O)N2CCCC2)cn2nc(-c3ccccn3)nc12` and give its measured Ki.
Response: 3570

Prompt: Consider the compound `CCCN(C)C(=O)c1cc(N)c2nc(-c3ccc(Br)o3)nn2c1` and give its measured Ki.
Response: 1150

Prompt: Consider the compound C[C@@H]1C[C@@H](C)CN(C(=O)c2cc(N)c3nc(-c4ccc(Br)o4)nn3c2)C1 (stereo in doubt) and give its measured Ki.
Response: 1190

Prompt: Consider the compound `CN(CCC#N)C(=O)c1cc(N)c2nc(-c3ccc(Br)o3)nn2c1` and give its measured Ki.
Response: 830

Prompt: Consider the compound Cc1ccc(-c2nc3c(N)cc(C(=O)N4CCCC4C)cn3n2)o1 (stereo not drawn) and give its measured Ki.
Response: 1360

Prompt: Consider the compound `NC(=O)[C@H]1CCCN1C(=O)c1cc(N)c2nc(-c3ccco3)nn2c1` and give its measured Ki.
Response: 2330
